Tested on: MDA-N
test: NCI tumour cell line growth inhibition, 48 h
Items are presented alongside their recorded TGI.

Example results:
Cc1cc(C)n(-c2nc3ccccc3c(=O)[nH]2)n1 | > 76.9 µM
COc1c(-c2ccccc2)oc2c(CP(=O)(OC)OC)cccc2c1=O | > 100 µM
Cc1cc2c(C(C)C)c(O)c(O)c(C=NCC3CCCN4CCCCC34)c2cc1-c1cc2c(C=NCC3CCCN4CCCCC34)c(O)c(O)c(C(C)C)c2cc1C (stereo not given) | 20.9 µM
COc1ccc(-c2nc3cc(F)ccc3s2)cc1O | > 100 µM

Report TGI for `N=C(c1ccc(-c2cn3cc(C(=N)N4CCCC4)ccc3n2)cc1)N1CCCC1` please.
> 100 µM

Try the molecule `Oc1cccc2cc(Cl)cnc12`
> 100 µM

Try the molecule C=C[C@@]1(C)CC2(C=C(CO)C(O)O2)Oc2c1c(=O)oc1cccc(C)c21 (stereo not given in full)
15.2 µM

Try the molecule `Nc1nc(Cl)c(/C=N\O)c(NCC2(CO)CC(=O)C2)n1`
> 100 µM

Try the molecule `COc1ccccc1C1(c2c(OC(C)C)c(=O)c2=O)SCCCS1`
> 100 µM

---

Tested on: MALME-3M melanoma
test: NCI tumour cell line growth inhibition, 48 h
Response key: Fulfilled means TGI >= 30 µM; Not fulfilled means TGI < 30 µM.

Previously resolved entries follow.
O=[N+]([O-])[O][Sn]([O][Sn]([O][N+](=O)[O-])([c]1ccccc1)[c]1ccccc1)([c]1ccccc1)[c]1ccccc1 | Fulfilled
CC(=O)OCCOCn1cc(C=O)c2ccccc21 | Fulfilled
COc1ccc(O)cc1C=O | Fulfilled
CSC1(C)CC2C(CC1N1CCOCC1)C2(C)C (stereo not given) | Fulfilled
COc1cc2c3c(n(CCCNCCCNCCCn4c5c(c6cc(OC)c(OC)cc6c4=O)C(=O)c4ccccc4-5)c(=O)c2cc1OC)-c1ccccc1C3=O | Fulfilled
CCN(CCCl)CCCCNc1c2ccccc2nc2ccc(OC)cc12 | Not fulfilled

Identify whether the reported TGI of the following compound is 30 µM or greater: CC(C)=CCc1ccc2[nH]c3c(c2c1)C(=O)C(=O)C(C)=C3C(O)C(C)O (stereo not given)
Not fulfilled

Try the compound `CN(C)c1ccc(Cc2cc(C(C)(C)C)cc(C(C)(C)C)c2O)cc1`
Fulfilled

Try the compound C=C[C@@]1(C)CC2(C=C(CO)C(O)O2)Oc2c1c(=O)oc1cccc(C)c21 (stereo not given in full)
Not fulfilled

Try the compound CC12CC[C@@H]3c4cc5c(cc4CC[C@H]3[C@@H]1CCC2O)oc1cc(F)ccc15 (stereo not given in full)
Fulfilled

---

System: SK-MEL-2 melanoma
test: NCI tumour cell line growth inhibition, 48 h
parameter.measured: GI50

Example results:
O=C(CCl)Nc1ccc2c(Nc3cc(O)ccc3Cl)ncnc2c1 | 3.65 µM
COc1ccc2nc(NC(=O)COc3cc(/C=C\c4cc(OC)c(OC)c(OC)c4)ccc3OC)sc2c1 | 4.07 µM
Nc1ncc2ccc3c(ccn3C3CC(O)C(CO)O3)c2n1 (stereo not drawn) | > 100 µM

Report GI50 for `COc1cc2c3c(n(CCCN(C)C)c(=O)c2cc1OC)-c1cc2c(cc1C3=O)OCO2` please.
3.45 µM

Try the compound `COc1ccc(C(=O)NCCNc2nccc(-c3c(-c4ccc(F)cc4)nc4sccn34)n2)cc1`
6.23 µM

Try the compound `COc1ccc2[nH]c(C(=O)N3CCN(C(=O)OCc4ccc5c(Br)cc(Br)c(O)c5n4)CC3)cc2c1`
0.577 µM

Try the compound `O=c1c2sc3ccccc3c2nnn1-c1ccc(F)c(Cl)c1`
14.8 µM

Try the compound COc1ccc(C(=O)C2C(C#N)C(C#N)C3C=Cc4ccccc4N32)cc1 (stereo not drawn)
7.44 µM
